biological target: CYP3A4 (Homo sapiens); test: Cytochrome P450 (CYP450) Inhibition Assay, CYP3A4 (Vivid fluorescence, BOMCC substrate); settings: human, P450 Baculosomes (recombinant CYP3A4), probe BOMCC (Vivid substrate)
Sequence (P08684 whole entry): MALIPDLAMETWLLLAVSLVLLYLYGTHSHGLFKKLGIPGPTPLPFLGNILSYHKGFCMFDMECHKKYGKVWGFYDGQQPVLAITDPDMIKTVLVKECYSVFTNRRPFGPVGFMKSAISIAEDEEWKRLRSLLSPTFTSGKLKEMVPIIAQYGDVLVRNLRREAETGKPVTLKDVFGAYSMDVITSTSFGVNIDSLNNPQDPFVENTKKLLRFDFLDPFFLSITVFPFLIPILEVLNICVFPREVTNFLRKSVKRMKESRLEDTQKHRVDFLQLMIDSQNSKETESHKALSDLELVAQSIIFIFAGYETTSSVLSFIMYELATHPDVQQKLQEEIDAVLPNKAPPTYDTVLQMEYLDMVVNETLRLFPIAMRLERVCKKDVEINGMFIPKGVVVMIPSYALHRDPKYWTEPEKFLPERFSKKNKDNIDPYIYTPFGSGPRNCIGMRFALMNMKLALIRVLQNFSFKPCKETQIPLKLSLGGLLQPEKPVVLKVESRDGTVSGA
Overview of reported inhibition at 10 µM across a group of compounds:

Solved entries:
{"COMPOUND": "Cc1ccc(NC(=O)c2cccc(CN3C(=O)C4(COc5cc6c(cc54)CCO6)c4ccccc43)c2)c(C)c1 (stereo not drawn) [Example 12.4]", "inhibition at 10 µM": "> 50%"}
{"COMPOUND": "COCCCN1C(=O)C2(COc3cc4c(cc32)OCCO4)c2ccccc21 (stereo not drawn) [Example 7.9]", "inhibition at 10 µM": "< 50%"}
{"COMPOUND": "Nc1noc2cc3c(cc12)C1(CO3)C(=O)N(C[C@H]2CCCO2)c2ccccc21 (stereo partly drawn) [Example 44.2]", "inhibition at 10 µM": "< 50%"}
{"COMPOUND": "O=C1N(Cc2nc(C(F)(F)F)cs2)c2ccccc2C12COc1cc3c(cc12)OCCO3 (stereo not drawn) [Example 5.23]", "inhibition at 10 µM": "> 50%"}
{"COMPOUND": "O=C(Nc1ccc2c(c1)CCC2)c1ccc(CN2C(=O)C3(COc4cc5c(cc43)CCO5)c3ccccc32)cc1 (stereo not drawn) [Example 12.32]", "inhibition at 10 µM": "< 50%"}
{"COMPOUND": "COCCNC(=O)c1ccc(CN2C(=O)C3(COc4cc5c(cc43)CCO5)c3ccccc32)cc1 (stereo not drawn) [Example 12.40]", "inhibition at 10 µM": "< 50%"}
{"COMPOUND": "O=C1N(Cc2ccc(F)cc2)c2ccccc2C12COc1cc3c(cc12)CCO3 (stereo not drawn) [Example 4.13]", "inhibition at 10 µM": "> 50%"}
{"COMPOUND": "O=C1N(Cc2ccccn2)c2ccccc2C12COc1cc3c(cc12)OCC3 (stereo not drawn) [Example 4.52]", "inhibition at 10 µM": "< 50%"}

Please give measured inhibition at 10 µM of the following entry: N#Cc1cccc2c1N(Cc1ccc(Cl)s1)C(=O)C21COc2cc3c(cc21)OCO3 (stereo not drawn) [Example 4.87]
> 50%

Please give measured inhibition at 10 µM of the following entry: Cc1ccc(F)c2c1N(C[C@H]1CCCO1)C(=O)C21COc2cc3c(cc21)CCO3 (stereo partly drawn) [Example 8.3]
> 50%

Please give measured inhibition at 10 µM of the following entry: CN(C)C(=O)c1cccc2c1C1(COc3cc4c(cc31)OCCO4)C(=O)N2C (stereo not drawn) [Example 16.78]
< 50%

Please give measured inhibition at 10 µM of the following entry: COc1cc2c(c(OC)c1)C1(COc3cc4c(cc31)OCCO4)C(=O)N2 (stereo not drawn) [Example 3.50]
< 50%
